Tested on: HT29 colon
Assay: NCI tumour cell line growth inhibition, 48 h; in the data active = GI50 below about 0.43 µM; inactive = the rest
Outcomes: 1 (active), 0 (inactive)

>>> classification("O=C(CCCCCCN1CC(=O)N2[C@@H](c3ccc(Cl)c(Cl)c3)c3[nH]c4ccccc4c3C[C@H]2C1=O)NO")
0
>>> classification("CC1=C(CC(=O)c2cccc([N+](=O)[O-])c2)C(=O)c2ccccc2C1=O")
0
>>> classification("COc1ccc(-c2nc(/C=C3\\SC(=NCc4ccccc4)NC3=O)c3ccccn23)cc1")
0
>>> classification("Cc1cc(C#Cc2ccc(C(C)(C)C)cc2)ccc1-n1c(/C=C/c2ccc(O)cc2O)nc2ccccc2c1=O")
0
>>> classification("COc1cc2c(cc1OCCCCN1CCN(C(=S)SCCC(C#N)(c3ccccc3)c3ccccc3)CC1)N=C[C@@H]1CCCN1C2=O")
0
>>> classification("Oc1ccc(C(c2ccc(O)cc2)c2ccc(Br)cn2)cc1")
0
>>> classification("CC1OC(OC2C(O)CC(OC3C(O)CC(OC4CCC5(C)C(CCC6C5CC(O)C5(C)C(C7=CC(=O)OC7)CCC65O)C4)OC3C)OC2C)CC(O)C1O (stereo not drawn)")
1
>>> classification("COc1ncnc(NS(=O)(=O)c2ccc(N=C3C(=O)N(CN4CCN(c5c(F)cc6c(=O)c(C(=O)O)cn(C7CC7)c6c5OC)CC4C)c4ccc(Br)cc43)cc2)c1OC (stereo not drawn)")
0
>>> classification("C[CH2][Sn]([CH2]C)([O]C(=O)c1ccccc1OC)[O][Sn]([CH2]C)([CH2]C)[O]C(=O)c1ccccc1OC")
0
>>> classification("COC(=O)CCCCC(=O)c1c(C)[nH]c(/C=C2\\N=C(c3ccc[nH]3)C=C2OC)c1C")
1
>>> classification("CC(=O)NCc1cccc(C#Cc2cncnc2Nc2ccc(OCc3cccc(F)c3)c(Cl)c2)c1")
0
>>> classification("O=C(CC1(O)C(=O)N(Cc2ccccc2)c2ccccc21)c1ccc(C(=O)NCC2CCC3(CC2)OOC2(CCCCC2)OO3)cc1 (stereo not drawn)")
0
>>> classification("COc1ccc(N(CC(=O)NCCC[Te]c2ccccc2)C(=O)CNC(=O)OC(C)(C)C)cc1")
0

* * *

Test system: UACC-257 melanoma
Assay: NCI tumour cell line growth inhibition, 48 h
property: TGI

>>> result("N#CCN1CCn2c1nsc2=S")
"> 100 µM"
>>> result("Cn1c(-c2ccccc2)cc(-c2cccs2)c1-c1cccs1")
"> 51 µM"
>>> result("Cc1cn(CCCCC2=NCCCN2)c(=O)[nH]c1=O")
"> 33.9 µM"
>>> result("CCOC(=O)CNC(=O)C(CSC(=O)N(O)c1ccc(Cl)cc1)NC(=O)CCC(N)C(=O)OCC (configuration not stated)")
"> 50 µM"
>>> result("C/C(=N/N=C(\\[O-])c1ccncc1)C(F)(F)F.C/C(=N\\N=C(/[O-])c1ccncc1)C(F)(F)F.[Ni+2]")
"> 1 µM"
>>> result("CC(C)=CC(=O)N(C)C1C2CN3CCC(O2)C13 (configuration not stated)")
"> 100 µM"
>>> result("CC1(C)OC(=S)N(c2ccccc2)C12C=Cc1ccccc1O2 (configuration not stated)")
"> 100 µM"

* * *

Tested on: MALME-3M melanoma
Experiment: NCI tumour cell line growth inhibition, 48 h
property: TGI

>>> result("O=C(O)CCC(=O)c1ccc2sc3ccccc3c2c1")
"> 100 µM"
>>> result("CC(=O)C1=CN=C2C(=O)N(c3ccccc3)N(C)C12C (stereo unspecified)")
"> 100 µM"
>>> result("NS(=O)(=O)c1nnc(NS(=O)(=O)C(F)(F)F)s1")
"> 100 µM"
>>> result("N#CC(c1ccccn1)c1nc2ccccc2[nH]1 (stereo unspecified)")
"> 100 µM"
>>> result("COC(=O)/C=C(\\CC(=O)OC)n1nnnc1[C@@H]1C[C@H](COC(c2ccccc2)(c2ccccc2)c2ccccc2)[C@H]2OC(C)(C)O[C@H]21")
"> 100 µM"
>>> result("C#CCNC(=O)[C@H](CC)[C@H]1CC[C@H](C)[C@H]([C@@H](C)[C@H](O)[C@H](C)C(=O)[C@H](CC)C2O[C@]3(C=CC(=O)[C@]4(CC[C@@](C)([C@H]5CC[C@](O)(CC)[C@H](C)O5)O4)O3)[C@H](C)C[C@@H]2C)O1 (stereo partly specified)")
"6.15 µM"
>>> result("CSc1nc2sc3c(c2c(=O)n1-c1ccc(C(C)C)cc1)CCC(=O)C3")
"8.25 µM"
>>> result("CC12C=CC(=O)C=C1CCC1C3CCC(O)(C(=O)CO)C3(C)CC(O)C12F (stereo unspecified)")
"> 100 µM"
>>> result("C[CH2][Sn]([CH2]C)([O]C(=O)c1ccccc1OC)[O][Sn]([CH2]C)([CH2]C)[O]C(=O)c1ccccc1OC")
"> 100 µM"
>>> result("C=CCN1CC(=O)N2[C@@H](Cc3ccc(O)cc3F)C(=O)N(Cc3cccc(N4CC(N5CCN(CC)CC5)C4)n3)C[C@@H]2N1C(=O)NCc1ccccc1")
"0.211 µM"
>>> result("N#CC(C#N)c1ccc(C(=O)N2CCC[C@H]2CO)cc1")
"> 100 µM"
